Item-by-item account of IC50
# tested system: recombinant rat mGluR5 (Rattus norvegicus, UniProt P31424)
# Construct: expressed in transfected cells
# Sequence (P31424 21-1203): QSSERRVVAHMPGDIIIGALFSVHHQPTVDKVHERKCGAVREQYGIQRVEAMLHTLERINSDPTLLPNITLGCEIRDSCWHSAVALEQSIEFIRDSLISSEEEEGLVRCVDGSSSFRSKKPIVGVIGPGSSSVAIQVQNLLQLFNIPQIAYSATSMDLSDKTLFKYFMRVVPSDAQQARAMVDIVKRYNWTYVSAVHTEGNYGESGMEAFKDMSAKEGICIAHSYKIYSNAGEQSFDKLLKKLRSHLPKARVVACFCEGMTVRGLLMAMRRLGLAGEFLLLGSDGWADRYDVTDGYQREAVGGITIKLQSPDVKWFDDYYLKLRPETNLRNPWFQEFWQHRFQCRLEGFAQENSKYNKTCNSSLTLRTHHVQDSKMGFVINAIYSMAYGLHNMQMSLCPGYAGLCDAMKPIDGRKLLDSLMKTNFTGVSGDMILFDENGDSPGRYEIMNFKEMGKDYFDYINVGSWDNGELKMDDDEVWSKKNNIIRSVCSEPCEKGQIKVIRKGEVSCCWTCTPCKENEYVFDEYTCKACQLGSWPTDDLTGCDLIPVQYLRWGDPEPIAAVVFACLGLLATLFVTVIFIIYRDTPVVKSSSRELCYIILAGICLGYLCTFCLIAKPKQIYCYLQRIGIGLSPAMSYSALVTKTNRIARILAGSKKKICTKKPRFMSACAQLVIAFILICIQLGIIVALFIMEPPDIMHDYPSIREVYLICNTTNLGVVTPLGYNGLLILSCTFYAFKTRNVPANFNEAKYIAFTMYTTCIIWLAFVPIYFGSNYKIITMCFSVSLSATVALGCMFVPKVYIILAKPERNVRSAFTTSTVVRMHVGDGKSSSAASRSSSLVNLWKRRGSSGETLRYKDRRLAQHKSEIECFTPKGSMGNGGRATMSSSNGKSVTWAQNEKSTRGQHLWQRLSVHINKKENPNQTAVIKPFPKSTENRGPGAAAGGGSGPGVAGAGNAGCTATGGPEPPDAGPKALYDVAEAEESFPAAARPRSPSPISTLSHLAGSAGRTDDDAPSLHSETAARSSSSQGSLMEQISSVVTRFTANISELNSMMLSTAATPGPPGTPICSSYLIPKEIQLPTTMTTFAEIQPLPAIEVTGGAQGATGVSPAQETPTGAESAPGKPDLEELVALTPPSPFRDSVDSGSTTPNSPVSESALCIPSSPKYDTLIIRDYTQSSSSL
# method description: Functional calcium flux assay (FLIPR), antagonist evaluation against glutamate-evoked [Ca2+]i increase
# Assay type: cell-based
# recorded conditions: Table 2; HEK293 cells stably expressing recombinant rat mGluR5; 15 min incubation of test compound, then submaximal glutamate; read-out: IC50 (FLIPR assay)

Check out these entries, answers already filled in.
>>> print(df.to_string())
                              line_notation                             tested_system   endpoint_value
0  FC(F)(F)Oc1ccc(-n2ccc(C#Cc3ccccc3)n2)cc1  recombinant rat mGluR5 (Rattus norvegicus, UniProt P31424)  1000 to 5000 nM
1           C(#Cc1ccn(-c2ccccn2)n1)c1ccccn1  recombinant rat mGluR5 (Rattus norvegicus, UniProt P31424)         ≤ 500 nM
2  N#Cc1cc(F)cc(-n2cc(Cl)c(C#Cc3ccccn3)n2)c1  recombinant rat mGluR5 (Rattus norvegicus, UniProt P31424)         ≤ 500 nM
3         Cc1cn(-c2ccc(F)cn2)nc1C#Cc1ccccn1  recombinant rat mGluR5 (Rattus norvegicus, UniProt P31424)   500 to 1000 nM
4         Cc1cc(C#Cc2cccnc2)nn1-c1ccc(F)cc1  recombinant rat mGluR5 (Rattus norvegicus, UniProt P31424)  1000 to 5000 nM
5     N#Cc1cc(F)cc(-n2ccc(C#Cc3ccncc3)n2)c1  recombinant rat mGluR5 (Rattus norvegicus, UniProt P31424)         ≤ 500 nM
6          Fc1ccc(-n2ccc(C#Cc3cccnc3)n2)cc1  recombinant rat mGluR5 (Rattus norvegicus, UniProt P31424)  1000 to 5000 nM
7          Fc1ccc(-n2ccc(C#Cc3ccncc3)n2)cc1  recombinant rat mGluR5 (Rattus norvegicus, UniProt P31424)         ≤ 500 nM

The compound Cc1cc(C#Cc2ncccn2)nn1-c1cc(F)cc(C#N)c1 , when measured on recombinant rat mGluR5 (Rattus norvegicus, UniProt P31424), yielded IC50 of ≤ 500 nM

The compound Fc1ccc(-n2ccc(C#Cc3ccnc(Cl)c3)n2)cc1 , when measured on recombinant rat mGluR5 (Rattus norvegicus, UniProt P31424), yielded IC50 of ≤ 500 nM

* * *

Item-by-item account of IC50
# tested system: recombinant rat mGluR5 (Rattus norvegicus)
# Construct: expressed in transfected cells
# method description: Functional calcium flux assay (FLIPR), antagonist evaluation against glutamate-evoked [Ca2+]i increase
# Assay type: cell-based
# recorded conditions: Table 1; HEK293 cells stably expressing recombinant rat mGluR5; 15 min incubation of test compound, then submaximal glutamate; read-out: IC50 value (FLIPR assay)
# Procedure: Functional Calcium Clux Assay Methodology For functional assays, HEK293 cells stably expressing recombinant rat mGluR5 were seeded in 384-well plates and dye loaded using Fluo-8. Cells were then washed to remove the un-incorporated dye. […] Intracellular calcium ([Ca^2+]i) measurements were performed using a fluorometric imaging plate reader (FLIPR, Molecular Devices). […]

Check out these entries, answers already filled in.
In [3]: df
Out[3]:
                                   molecule  measured_metric   endpoint_value
0  Cc1nn(-c2ccc(F)cn2)c(C)c1C#Cc1ccccn1 [Compound 25]             IC50         ≤ 500 nM
1  Fc1ccc(-n2cc(C#Cc3ccccn3)c(Cl)n2)cc1 [Compound 42]             IC50         ≤ 500 nM
2  N#Cc1cc(F)cc(-n2cc(C#Cc3cnccn3)cn2)c1 [Compound 80]             IC50  1000 to 5000 nM
3  CS(=O)(=O)c1ccc(-n2cc(C#Cc3ccccn3)c(Cl)n2)cc1 [Compound 58]             IC50  1000 to 5000 nM

Noted for COc1nn(-c2ccc(F)cc2)c(C)c1C#Cc1ccccn1 [Compound 8] : its IC50 reads ≤ 500 nM

Noted for FC(F)(F)Oc1ccc(-n2cc(C#Cc3cnccn3)cn2)cc1 [Compound 65] : its IC50 reads 1000 to 5000 nM

Noted for Cc1nn(-c2ccc(F)cn2)cc1C#Cc1ccccn1 [Compound 63] : its IC50 reads ≤ 500 nM

Noted for FC(F)(F)Oc1ccc(-n2cc(C#Cc3ncccn3)c(Cl)n2)cc1 [Compound 41] : its IC50 reads 1000 to 5000 nM

Noted for Cc1nn(-c2ccc(F)cc2)c(C)c1C#Cc1ccccn1 [Compound 1] : its IC50 reads ≤ 500 nM

Noted for Fc1ccc(-n2ncc(C#Cc3ccccn3)c2Cl)cc1 [Compound 20] : its IC50 reads ≤ 500 nM
